From: PubChem BioAssay (NCI)

- System: 786-0 renal
- experimental.details: NCI-60 one-dose screen, 48 h (100 = growth as untreated, 0 = no growth, -100 = all killed)
- setup.conditions: 10 µM unless noted
Compounds without any hit were thinned out: in the full panel of roughly 83,000, 20% have a hit.

>  <smiles.input>
O=C(/C=C/c1cn(-c2ccccc2)nc1-c1cccc(Nc2ccnc3cc(Cl)ccc23)c1)c1ccc2c(c1)OCO2

>  <unit.abbrev>
%

>  <growth>
99.8

$$$$
>  <smiles.input>
COc1ccc(/C=c2\c(=O)n(-c3ccccc3)c3nn4c(n23)=NNC42CCCCC2)cc1

>  <unit.abbrev>
%

>  <growth>
106

$$$$
>  <smiles.input>
O=[N+]([O-])c1cccc(N=C(Nc2cccc([N+](=O)[O-])c2)c2ccccc2)c1

>  <unit.abbrev>
%

>  <growth>
83.6

$$$$
>  <smiles.input>
COc1ccc(-c2nnc(SCC(=O)Nc3ccc(C(=O)/C=C/c4ccc(Cl)cc4)cc3)n2-c2ccccc2)cc1

>  <unit.abbrev>
%

>  <growth>
97.4

$$$$
>  <smiles.input>
CCNC(=S)N(Cc1ccccc1)Cc1ccccc1

>  <unit.abbrev>
%

>  <growth>
107

$$$$
>  <smiles.input>
O=c1[nH]cnc2nc[nH]c12

>  <unit.abbrev>
%

>  <growth>
114

$$$$

---

growth for assorted compounds
- Tested on: TK-10 renal
- experimental.details: NCI-60 one-dose screen, 48 h (100 = growth as untreated, 0 = no growth, -100 = all killed)
- setup.conditions: 10 µM unless noted
- Protocol: Growth inhibition of the TK-10 human tumor cell line is measured as a screen for anti-cancer activity. Cells are grown in 96 well plates and exposed to the test compound for 48 hours. Compounds are tested at a single concentration, which is 10^-5 M for most compounds. The reported endpoint is percent growth (GI% or GIPRCNT), where numbers from 0 - 100% represent growth inhibition, and numbers from -100% - 0 represent cell death. For example, a value of 40 represents 60% growth inhibition. […]
This is part of a sample that, as a whole, favours compounds with a hit. Of some 83,000 tested, about 20% had one in any assay.

>  <compound>
CC1(C)CC[C@]2(C(=O)N3CCNCC3)CC[C@]3(C)C(=CC[C@@H]4[C@@]5(C)CCC(=O)C(C)(C)[C@@H]5CC[C@]43C)[C@@H]2C1

>  <growth [%]>
101

$$$$
>  <compound>
CC1=C(C(=O)Nc2ccc(F)cc2)C(c2ccc(C)cc2)C2=C(CC(C)(C)CC2=O)N1 (stereo not given)

>  <growth [%]>
109

$$$$
>  <compound>
O=C(Nc1ccc(Oc2ccc(NC(=O)Nc3ccccc3Cl)cc2)cc1)Nc1ccccc1Cl

>  <growth [%]>
75.1

$$$$
>  <compound>
Cc1cc(O)c(C2=NN(c3ccc(S(N)(=O)=O)cc3)C(c3ccc(Cl)cc3)C2)c(C)c1Cl (stereo not given)

>  <growth [%]>
80

$$$$
>  <compound>
Cc1ccc(NC(=O)c2[nH]c(SCCN(C)C)nc2-c2ccc(F)cc2)cc1Nc1ccc2ncn(C)c(=O)c2c1

>  <growth [%]>
63

$$$$

---

- Tested on: A498 renal
- experimental.details: NCI-60 one-dose screen, 48 h (100 = growth as untreated, 0 = no growth, -100 = all killed)
- setup.conditions: 10 µM unless noted
- Protocol: Growth inhibition of the A498 human tumor cell line is measured as a screen for anti-cancer activity. Cells are grown in 96 well plates and exposed to the test compound for 48 hours. Compounds are tested at a single concentration, which is 10^-5 M for most compounds. The reported endpoint is percent growth (GI% or GIPRCNT), where numbers from 0 - 100% represent growth inhibition, and numbers from -100% - 0 represent cell death. For example, a value of 40 represents 60% growth inhibition. […]
About 83,000 compounds went through this panel and 20% of them were active in at least one assay; those are over-represented in the sample as a whole.

>  <molecule>
Cc1ccc(C2CC(c3cccs3)=NN2c2ccc(S(N)(=O)=O)cc2)s1 (stereo not given)

>  <growth / %>
89.9

$$$$
>  <molecule>
O=C1OC(c2ccc(-c3ccccc3)cc2)=C/C1=C/c1c(Cl)cccc1Cl

>  <growth / %>
93.5

$$$$
>  <molecule>
C[C@@H]1C[C@H](N)C[C@H](c2ccncc2NC(=O)c2ccc(F)c(-c3c(F)cccc3F)n2)C1

>  <growth / %>
35.9

$$$$
>  <molecule>
COc1ccc(/C(=C\c2ccc3c(c2)OCO3)C(=O)Nc2nc3ccccc3s2)cc1

>  <growth / %>
99.9

$$$$
>  <molecule>
Nc1nc(N)c2c(n1)NC(c1sc(Cl)nc1Cl)CC(c1ccccc1)=N2 (stereo not given)

>  <growth / %>
19.7

$$$$
